- method: Polymer (high molecular component) content of antibody-drug conjugates by SE-HPLC
- Assay type: physicochemical
- condition.label: ADC with Her2 antibody
result.type: Polymer content (%)
Value expressed in %; do not type the unit.

Example entries and their recorded answers appear below.
compound	Polymer content (%)
C=C1C[C@@H]2CC[C@@]34C[C@H]5OC6C(O[C@H]7CC[C@H](CC(=O)C[C@@H]8[C@@H](OC)[C@@H](C[C@H](O)CNC(=O)CNC(=O)[C@H](Cc9ccccc9)NC(=O)CNC(=O)CN9CCOCCOCCN(C(=O)CCCC%10C(=O)C=CC%10=O)CCOCCOCC9)O[C@H]8C[C@H]8O[C@@H](CC[C@@H]1O2)C[C@@H](C)C8=C)O[C@@H]7[C@@H]6O3)[C@H]5O4 [Example 42]	1.25
CCc1c2c(nc3ccc(O)cc13)-c1cc3c(c(=O)n1C2)COC(=O)[C@@]3(CC)OC(=O)N(C)CCN(C)C(=O)COCNC(=O)[C@H](CC(N)=O)NC(=O)[C@H](C)NC(=O)[C@H](C)NC(=O)CN1CCOCCN(C(=O)CCN2C(=O)C=CC2=O)CCOCC1 [Example 83]	0.56
C=C1C[C@@H]2CC[C@@]34C[C@H]5OC6C(C[C@H]7CC[C@H](CC(=O)C[C@@H]8[C@@H](OC)[C@@H](C[C@H](O)CNC(=O)CNC(=O)[C@H](Cc9ccccc9)NC(=O)CNC(=O)CNC(=O)CCC(=O)N9CCOCCN(C(=O)CCN%10C(=O)C=CC%10=O)CCOCC9)O[C@H]8C[C@H]8O[C@@H](CC[C@@H]1O2)C[C@@H](C)C8=C)O[C@@H]7[C@@H]6O3)[C@H]5O4 [Example 26]	0.70

INPUT: # lookup: Polymer content (%) of C=C1C[C@@H]2CC[C@@]34C[C@H]5OC6C(O[C@H]7CC[C@H](CC(=O)C[C@@H]8[C@@H](OC)[C@@H](C[C@H](O)CNC(=O)CNC(=O)[C@H](Cc9ccccc9)NC(=O)CNC(=O)CNC(=O)CN9CCOCCN(C(=O)CCN%10C(=O)C=CC%10=O)CCOCC9)O[C@H]8C[C@H]8O[C@@H](CC[C@@H]1O2)C[C@@H](C)C8=C)O[C@@H]7[C@@H]6O3)[C@H]5O4 [Example 21]
OUTPUT: 0.87

INPUT: # lookup: Polymer content (%) of C=C1C[C@@H]2CC[C@@]34C[C@H]5OC6C(O[C@H]7CC[C@H](CC(=O)C[C@@H]8[C@@H](OC)[C@@H](C[C@H](O)CNC(=O)CNC(=O)[C@H](Cc9ccccc9)NC(=O)CNC(=O)CNC(=O)CN9CCOCCOCCN(C(=O)CCCCCN%10C(=O)C=CC%10=O)CCOCCOCC9)O[C@H]8C[C@H]8O[C@@H](CC[C@@H]1O2)C[C@@H](C)C8=C)O[C@@H]7[C@@H]6O3)[C@H]5O4 [Example 39]
OUTPUT: 0.90

INPUT: # lookup: Polymer content (%) of C=C1C[C@@H]2CC[C@@]34C[C@H]5OC6C(O[C@H]7CC[C@H](CC(=O)C[C@@H]8[C@@H](OC)[C@@H](C[C@H](O)CNC(=O)CNC(=O)[C@H](Cc9ccccc9)NC(=O)CNC(=O)CNC(=O)CCCCCN9C(=O)C=CC9=O)O[C@H]8C[C@H]8O[C@@H](CC[C@@H]1O2)C[C@@H](C)C8=C)O[C@@H]7[C@@H]6O3)[C@H]5O4 [Comparative Example 4, reference compound]
OUTPUT: 10.73
